- study.target: huPD-L1 (Homo sapiens, UniProt Q9NZQ7)
- Sequence (Q9NZQ7 19-290): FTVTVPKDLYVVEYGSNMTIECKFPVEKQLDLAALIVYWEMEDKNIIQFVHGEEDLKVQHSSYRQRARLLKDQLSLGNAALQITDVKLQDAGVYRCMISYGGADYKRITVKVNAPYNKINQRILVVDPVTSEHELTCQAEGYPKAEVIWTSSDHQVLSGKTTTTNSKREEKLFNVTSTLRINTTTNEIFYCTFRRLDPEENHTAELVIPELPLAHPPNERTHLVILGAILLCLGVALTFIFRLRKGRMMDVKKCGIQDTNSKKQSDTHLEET
- protocol: Flow binding to CHO cells stably expressing PD-L1
- Set-up: huCTLA4 and huPD-L1, full-length mammalian surface expression constructs were generated; expressed in transfected cells; host or cells: CHO cells, lentiviral transduction, sorted to >98% purity
- assay.context: Table E11; 33.3 nM; listed as WT CD80 ECD-Fc = 1.0
- Description: Binding of selected immunomodulatory fusion proteins to cognate binding partners was assessed. […] Cells were sorted in a Bio-Rad S3 Cell Sorter (Bio-Rad Corp., USA) to >98% purity. […] For staining and analysis by flow cytometry, 100,000 cells of appropriate transfected cells were plated in 96-well round bottom plates. […] Cells were then washed twice with 150 μL/well stain buffer, fixed in 2% formaldehyde/PBS, and analyzed on Intellicyt flow cytometer (Intellicyt Corp., USA). […]
metric: PD-L1 Fold change to WT CD80
API doc: respond with a numeric literal and nothing else, no unit.

PD-L1 Fold change to WT CD80 for T13R/Q33R/E35D/M38I/M47L/V68M/L85M (protein, UniProt P33681 35-288, looked up, variant T13R Q33R E35D M38I M47L V68M L85M) T-lymphocyte activation …: VIHVTKEVKEVARLSCGHNVSVEELAQTRIYWRKDKKIVLTMMSGDLNIWPEYKNRTIFDITNNLSIMILALRPSDEGTYECVVMKYEKDAFKREHLAEVTLSVKADFPTPSISDFEIPTSNIRRIICSTSGGFPEPHLSWLENGEELNAINTTVSQDPETELYAVSSKLDFNMTTNHSFMCLIKYGHLRVNQTFNWNTTKQEHFPDNLLPSWAITLISVNGIFVICCLTYCFAPRCRERRRNERLRRESVRPV ?
21.5
